Where do these numbers come from? They come from the supplement of paper PMC10567573.

B1: LMNB1 (parent)
chain: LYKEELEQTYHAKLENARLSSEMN

variants of: B1; test: protein stability index of a GFP-peptide fusion (GPS, HEK-293T) (PSI 1-6); higher = more stable; conditions: c terminus: a fixed tail appended;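 also: lentivirally expressed fusions sorted by FACS into six bins by GFP to DsRed ratio, PSI derived from sequencing read proportions per bin multiplied by bin number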
Use Yes when the recorded protein stability index is no lower than 3; use No when it is lower.

// known answers, use as guide
{"columns": ["MUTANT_NAME", "CAT"],
 "data": [
  ["S21A", "No"],
  ["A12L", "Yes"],
  ["S21W", "No"],
  ["E22R", "No"],
  ["L14S", "Yes"]
]}

For this variant, is measured protein stability index 3 or higher? Q8W No

For this variant, is measured protein stability index 3 or higher? L19H Yes

For this variant, is measured protein stability index 3 or higher? N16Y No

For this variant, is measured protein stability index 3 or higher? E4G No

For this variant, is measured protein stability index 3 or higher? Y2H Yes

For this variant, is measured protein stability index 3 or higher? Q8E Yes

For this variant, is measured protein stability index 3 or higher? H11T Yes

For this variant, is measured protein stability index 3 or higher? E7I No
